Recorded IC50 by entry
systemUnderTest: recombinant human ARG1 (Homo sapiens, UniProt P05089)
assay: Arginase coupled enzymatic assay using recombinant human ARG1
testContext: 2 nM ARG1, 0.8 mM L-Arginine, 10 mM sodium phosphate pH 7.4, 0.1 mM MnCl2, 37° C., absorption at 570 nm; read-out: hARG1 potency (IC50)
metric: IC50

[
  {
    "sampleSmiles": "NCc1ccc2c(c1)C[C@H](CCCB(O)O)[C@]2(N)C(=O)O",
    "systemUnderTest": "recombinant human ARG1 (Homo sapiens, UniProt P05089)",
    "valueMeasured": "< 100 nM"
  },
  {
    "sampleSmiles": "CN[C@@]1(C(=O)O)c2cc(-c3cc(F)ccc3CN)c(F)cc2C[C@@H]1CCCB(O)O",
    "systemUnderTest": "recombinant human ARG1 (Homo sapiens, UniProt P05089)",
    "valueMeasured": "< 100 nM"
  },
  {
    "sampleSmiles": "CN[C@@]1(C(=O)OC)c2cc(CN)c(Cl)cc2C[C@@H]1CCCB(O)O",
    "systemUnderTest": "recombinant human ARG1 (Homo sapiens, UniProt P05089)",
    "valueMeasured": "100 to 1000 nM"
  },
  {
    "sampleSmiles": "CN[C@@]1(C(=O)O)c2cc(CN3CCCC3)c(F)cc2C[C@@H]1CCCB(O)O",
    "systemUnderTest": "recombinant human ARG1 (Homo sapiens, UniProt P05089)",
    "valueMeasured": "< 100 nM"
  },
  {
    "sampleSmiles": "CN[C@@]1(C(=O)O)c2cc([C@H](C)N)c(F)cc2C[C@@H]1CCCB(O)O",
    "systemUnderTest": "recombinant human ARG1 (Homo sapiens, UniProt P05089)",
    "valueMeasured": "< 100 nM"
  },
  {
    "sampleSmiles": "CNCc1cccc2c1C[C@H](CCCB(O)O)[C@]2(NC)C(=O)O",
    "systemUnderTest": "recombinant human ARG1 (Homo sapiens, UniProt P05089)",
    "valueMeasured": "100 to 1000 nM"
  },
  {
    "sampleSmiles": "CN[C@@]1(C(=O)O)c2cc(CN)c(Cl)cc2C[C@@H]1CCCB(O)O",
    "systemUnderTest": "recombinant human ARG1 (Homo sapiens, UniProt P05089)",
    "valueMeasured": "< 100 nM"
  },
  {
    "sampleSmiles": "CN[C@@]1(C(=O)O)c2cc([C@@H](N)C(C)C)c(Cl)cc2C[C@@H]1CCCB(O)O",
    "systemUnderTest": "recombinant human ARG1 (Homo sapiens, UniProt P05089)",
    "valueMeasured": "< 100 nM"
  },
  {
    "sampleSmiles": "CN[C@@]1(C(=O)O)c2cc(C3(CNC(=O)[C@H](C)N)CCC3)c(F)cc2C[C@@H]1CCCB(O)O",
    "systemUnderTest": "recombinant human ARG1 (Homo sapiens, UniProt P05089)",
    "valueMeasured": "< 100 nM"
  },
  {
    "sampleSmiles": "CN[C@@]1(C(=O)O)c2cc(C(C)(C)N)c(F)cc2C[C@@H]1CCCB(O)O",
    "systemUnderTest": "recombinant human ARG1 (Homo sapiens, UniProt P05089)",
    "valueMeasured": "< 100 nM"
  },
  {
    "sampleSmiles": "CN[C@@]1(C(=O)O)c2cc([C@@H](N)C3CC3)c(Cl)cc2C[C@@H]1CCCB(O)O",
    "systemUnderTest": "recombinant human ARG1 (Homo sapiens, UniProt P05089)",
    "valueMeasured": "< 100 nM"
  },
  {
    "sampleSmiles": "NC1(c2cc3c(cc2F)C[C@H](CCCB(O)O)[C@]3(N)C(=O)O)CCC1",
    "systemUnderTest": "recombinant human ARG1 (Homo sapiens, UniProt P05089)",
    "valueMeasured": "< 100 nM"
  },
  {
    "sampleSmiles": "NCc1ccc2c(c1)[C@@](N)(C(=O)O)[C@@H](CCCB(O)O)C2",
    "systemUnderTest": "recombinant human ARG1 (Homo sapiens, UniProt P05089)",
    "valueMeasured": "< 100 nM"
  }
]

====

systemUnderTest: recombinant human ARG1 (Homo sapiens)
assay: Arginase coupled enzymatic assay using recombinant human ARG1
testContext: 2 nM ARG1, 0.8 mM L-Arginine, 10 mM sodium phosphate pH 7.4, 0.1 mM MnCl2, 37° C., absorption at 570 nm; read-out: hARG1 potency (IC50)
pIC50: −log10 of the molar value.
# maps each entry to its pIC50

[
  {
    "sampleSmiles": "N[C@@]1(C(=O)O)c2cccc(-c3cn[nH]c3)c2C[C@@H]1CCCB(O)O",
    "systemUnderTest": "recombinant human ARG1 (Homo sapiens)",
    "pIC50": "< 6.00"
  },
  {
    "sampleSmiles": "CN[C@@]1(C(=O)O)c2cc(CNC3CCCC3)c(F)cc2C[C@@H]1CCCB(O)O",
    "systemUnderTest": "recombinant human ARG1 (Homo sapiens)",
    "pIC50": "> 7.00"
  },
  {
    "sampleSmiles": "CN[C@@]1(C(=O)O)c2cc(CNC(=O)[C@H](C)N)ccc2C[C@@H]1CCCB(O)O",
    "systemUnderTest": "recombinant human ARG1 (Homo sapiens)",
    "pIC50": "> 7.00"
  }
]

====

systemUnderTest: recombinant human ARG1 (Homo sapiens)
Sequence (P05089 1-322): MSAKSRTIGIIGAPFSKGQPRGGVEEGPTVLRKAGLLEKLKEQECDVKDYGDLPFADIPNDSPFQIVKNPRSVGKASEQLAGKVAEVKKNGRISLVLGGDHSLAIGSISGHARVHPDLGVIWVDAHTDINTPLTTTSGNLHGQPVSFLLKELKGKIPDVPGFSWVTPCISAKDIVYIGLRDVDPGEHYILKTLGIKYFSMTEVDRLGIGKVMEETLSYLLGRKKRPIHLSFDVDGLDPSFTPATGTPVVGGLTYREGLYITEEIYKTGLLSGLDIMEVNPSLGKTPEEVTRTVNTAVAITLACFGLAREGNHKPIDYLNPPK
assay: Arginase coupled enzymatic assay using recombinant human ARG1
testContext: 2 nM ARG1, 0.8 mM L-Arginine, 10 mM sodium phosphate pH 7.4, 0.1 mM MnCl2, 37° C., absorption at 570 nm; read-out: hARG1 potency (IC50)

[
  {
    "compound": "N[C@@]1(C(=O)O)c2cc(Cl)ccc2C[C@@H]1CCCB(O)O",
    "systemUnderTest": "recombinant human ARG1 (Homo sapiens)",
    "IC50": "100 to 1000 nM"
  },
  {
    "compound": "CC(N)c1ccc2c(c1)[C@@](N)(C(=O)O)[C@@H](CCCB(O)O)C2 (some centres unmarked)",
    "systemUnderTest": "recombinant human ARG1 (Homo sapiens)",
    "IC50": "< 100 nM"
  },
  {
    "compound": "CN[C@@]1(C(=O)O)c2cc([C@@H](C)N)ccc2C[C@@H]1CCCB(O)O",
    "systemUnderTest": "recombinant human ARG1 (Homo sapiens)",
    "IC50": "< 100 nM"
  },
  {
    "compound": "CN[C@@]1(C(=O)O)c2cc([C@H](C)N)c(C)cc2C[C@@H]1CCCB(O)O",
    "systemUnderTest": "recombinant human ARG1 (Homo sapiens)",
    "IC50": "< 100 nM"
  },
  {
    "compound": "N#Cc1cccc2c1C[C@H](CCCB(O)O)[C@]2(N)C(=O)O",
    "systemUnderTest": "recombinant human ARG1 (Homo sapiens)",
    "IC50": "> 1000 nM"
  },
  {
    "compound": "NC1CN(c2ccc3c(c2)C[C@H](CCCB(O)O)[C@]3(N)C(=O)O)C1",
    "systemUnderTest": "recombinant human ARG1 (Homo sapiens)",
    "IC50": "> 1000 nM"
  },
  {
    "compound": "CN[C@@]1(C(=O)O)c2cc(CN3CC(F)(F)C3)c(Cl)cc2C[C@@H]1CCCB(O)O",
    "systemUnderTest": "recombinant human ARG1 (Homo sapiens)",
    "IC50": "100 to 1000 nM"
  },
  {
    "compound": "CN[C@@]1(C(=O)O)c2cc(C(C)(C)C(C)(C)N)c(F)cc2C[C@@H]1CCCB(O)O",
    "systemUnderTest": "recombinant human ARG1 (Homo sapiens)",
    "IC50": "< 100 nM"
  }
]

====

Listed here are molecules together with their documented IC50.
systemUnderTest: recombinant human ARG1 (Homo sapiens)
Sequence (P05089 1-322): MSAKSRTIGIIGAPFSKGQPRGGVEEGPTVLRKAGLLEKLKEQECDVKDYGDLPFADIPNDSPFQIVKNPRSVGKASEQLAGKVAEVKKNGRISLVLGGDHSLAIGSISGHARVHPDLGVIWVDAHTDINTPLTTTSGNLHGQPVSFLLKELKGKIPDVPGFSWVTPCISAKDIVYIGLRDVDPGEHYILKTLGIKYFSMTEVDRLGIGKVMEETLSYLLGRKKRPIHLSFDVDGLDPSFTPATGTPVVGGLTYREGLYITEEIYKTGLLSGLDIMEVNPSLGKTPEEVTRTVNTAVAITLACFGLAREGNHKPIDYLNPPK
assay: Arginase coupled enzymatic assay using recombinant human ARG1
testContext: 2 nM ARG1, 0.8 mM L-Arginine, 10 mM sodium phosphate pH 7.4, 0.1 mM MnCl2, 37° C., absorption at 570 nm; read-out: hARG1 potency (IC50)

[
  {
    "sampleSmiles": "COc1ccc2c(c1)[C@@](N)(C(=O)O)[C@@H](CCCB(O)O)C2",
    "IC50": "100 to 1000 nM"
  },
  {
    "sampleSmiles": "Cc1ccc2c(c1)[C@@](N)(C(=O)O)[C@@H](CCCB(O)O)C2",
    "IC50": "> 1000 nM"
  },
  {
    "sampleSmiles": "CCN[C@@]1(C(=O)O)c2cc(OC)c(CN)cc2C[C@@H]1CCCB(O)O",
    "IC50": "100 to 1000 nM"
  },
  {
    "sampleSmiles": "N[C@@]1(C(=O)O)c2ccc(Cl)cc2C[C@@H]1CCCB(O)O",
    "IC50": "100 to 1000 nM"
  },
  {
    "sampleSmiles": "CN[C@@]1(C(=O)O)c2cc(Cl)c(CN)cc2C[C@@H]1CCCB(O)O",
    "IC50": "< 100 nM"
  },
  {
    "sampleSmiles": "CC[C@@H](N)c1cc2c(cc1F)C[C@H](CCCB(O)O)[C@]2(NC)C(=O)O",
    "IC50": "< 100 nM"
  },
  {
    "sampleSmiles": "CN[C@@]1(C(=O)O)c2cc(CNC3CC3)c(F)cc2C[C@@H]1CCCB(O)O",
    "IC50": "< 100 nM"
  },
  {
    "sampleSmiles": "CN[C@@]1(C(=O)O)c2cccc(OC)c2C[C@@H]1CCCB(O)O",
    "IC50": "> 1000 nM"
  }
]
